tested on: CAKI-1 renal; test: NCI tumour cell line growth inhibition, 48 h
measurement.label: TGI

>>> result("CC1(C)OC(=S)N(c2ccccc2)C12C=Cc1cc3ccccc3cc1O2 (stereo unspecified)")
"> 100 µM"
>>> result("COC(=O)c1ccc(C2SCC(=O)N2NC(=O)C(O)c2ccccc2)cc1 (stereo unspecified)")
"> 100 µM"
>>> result("O=CC1(C2(C=O)c3ccccc3-c3ccccc32)c2ccccc2-c2ccccc21")
"3.62 µM"
>>> result("O=c1/c(=C/c2ccc3c(c2)OCO3)sc2nnc(-c3ccco3)n12")
"> 100 µM"
>>> result("O=C(O)C1OC(Oc2cc(O)c3c(=O)cc(-c4ccc(O)cc4)oc3c2)C(O)C(O)C1O (stereo unspecified)")
"> 100 µM"
>>> result("CSc1ccc2c(cc1=O)[C@@H](NC(=O)c1ccc(F)cc1)CCc1cc(O)c(O)c(O)c1-2")
"> 100 µM"

* * *

system: K-562 leukemia; assay: NCI tumour cell line growth inhibition, 48 h
measurement.label: GI50

>>> result("COc1cc(NC(N)=NCCC(C)(C)c2ccc(C(F)(F)F)cc2)ncc1C#N")
"1.42 µM"
>>> result("O=c1cccc(C#CC#C/C=C/CO)o1")
"4.92 µM"
>>> result("C=C1N(C)c2ccc(Cl)cc2C1(C)C")
"3.75 µM"

* * *

tested on: SNB-75 CNS; assay: NCI tumour cell line growth inhibition, 48 h
measurement.label: TGI

>>> result("COc1cc(C2C(C#N)=C(N)Oc3cc(O)ccc32)cc(OC)c1OC (stereo not given)")
"> 100 µM"
>>> result("C=C(C(=O)O)[C@@H]1C[C@@H]2O[C@H]1CC(C)=CCC/C(C)=C/CC[C@@]2(C)O")
"> 100 µM"
>>> result("COC(=O)c1scc(N)c1-n1ccc(=O)[nH]c1=O")
"> 100 µM"
>>> result("Oc1cc2ccccc2cc1-c1n[nH]c(=S)n1-c1ccc(Cl)cc1")
"> 100 µM"
>>> result("CCOP(=O)(OCC)/C(C#N)=C/c1c(C)[nH]c2ccccc12")
"> 100 µM"
>>> result("CCCCCCCC/C=C/CCCCCCCC1CC(O)C(=O)O1 (stereo not given)")
"> 100 µM"
>>> result("CC(=O)OC1COC(Nn2c(=O)[nH]c3ccccc3c2=O)C(OC(C)=O)C1OC(C)=O (stereo not given)")
"> 100 µM"
>>> result("COc1cc([C@@H]2c3cc4c(c(O)c3C[C@H]3COC(=O)[C@@H]32)OCO4)cc(OC)c1O")
"> 78.6 µM"
>>> result("Cc1ccccc1/C=C1\\CN(C(=O)OC(C)(C)C)C/C(=C\\c2ccccc2C)C1=O")
"9.34 µM"
>>> result("O=S(=O)(NCCCNc1cc(-c2cn(-c3ccccc3)nc2-c2cccc(O)c2)ccn1)c1ccc(Cl)cc1")
"7.99 µM"

* * *

system: CCRF-CEM leukemia; experiment: NCI tumour cell line growth inhibition, 48 h
*1 amine or outer side, *2 acyl side, *3 side chain or, on linkers, in order; H or OH if unused. Where a SMILES comes first, the peptide text is derived from it. Bridges are numbered along the chain shown (N, C = ends). [ ]: non-standard residue; d: D form. The star is where a group is joined. Phe(3-Me) = Cc1cccc(C[C@H](N)C(=O)O)c1; NH(4-Cl-2-F-phenyl) = Fc1cc(Cl)ccc1N*; Pro(4R-Me) = C[C@H]1CN[C@H](C(=O)O)C1; Propanoyl(3-NMe2) = CN(C)CCC(=O)*; Hyp = O=C(O)[C@@H]1C[C@@H](O)CN1; aThr = C[C@H](O)[C@H](N)C(=O)O; Pip = O=C(O)[C@@H]1CCCCN1; CO = O=C([*:1])[*:2]
measurement.label: TGI (µM)

>>> measured_number("Oc1cc2c(cc1O)-c1[nH]ncc1CC2")
47.7
>>> measured_number("CC(C)[C@@H]1CC[C@@H]2[C@@H]1[C@H](OC(=O)/C=C/c1ccccc1)[C@]1(C(C)C)C[C@@H](OC(=O)CO)[C@@]2(C)O1")
15.2
>>> measured_number("COC(=O)CCC(=O)c1ccc2c(c1)CC1(C2)Cc2ccc3c(c2C1)CCCC3=O (centres undefined)")
11
>>> measured_number("CN(C)/C=N/S(=O)(=O)c1nn2c(C=O)c(-c3ccc(-c4ccc([N+](=O)[O-])cc4)o3)nc2s1")
3.98
>>> measured_number("COc1ccc(CNc2nc(NCc3ccc(OC)cc3)c3n[nH]c(C(C)C)c3n2)cc1")
15.4
>>> measured_number("Cc1cccc(NC(=S)N/N=C(/c2ccccc2)c2ccccn2)c1")
1.48
>>> measured_number("Cc1cccc(C[C@H](NC(=O)Nc2ccc(Cl)cc2F)C(=O)N[C@@H]2C(=O)N3C[C@H](OC(=O)CCN(C)C)C[C@H]3C(=O)N3CCCC[C@H]3C(=O)N[C@@H](C)C(=O)N3C[C@H](C)C[C@H]3C(=O)O[C@H]2C)c1 ({NH(4-Cl-2-F-phenyl)-CO}-[Phe(3-Me)][aThr][Hyp](Propanoyl(3-NMe2))[Pip]A[Pro(4R-Me)]; ester 2-C)")
7.81
>>> measured_number("CCN(CC)CC(O)C1CCC(c2ccccc2)CC1 (centres undefined)")
82.6
